These data points were gathered from the supplement of paper PMC10567573.

B1: DUSP5 (parent)
chain: YSEYPECCVDVKPISQEKIESERA

Variants of: B1
PROTOCOL: protein stability index of a GFP-peptide fusion (GPS, HEK-293T) (PSI 1-6); higher = more stable;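 note: lentivirally expressed fusions sorted by FACS into six bins by GFP to DsRed ratio, PSI derived from sequencing read proportions per bin multiplied by bin number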
TEST_CONDITIONS: c terminus: a fixed tail appended
// map protein stability index to label using low group = under 3, middle group = from 3 up to 4, high group = 4 and over

Examples with answers:
- YSEYPECCVDDKPISQEKIESERA [V11D]: high group
- YSEYPECGVDVKPISQEKIESERA [C8G]: high group

**Query** Class (by measured protein stability index) for YSEYPECCVDVKPIEQEKIESERA [S15E]
**Result** high group

**Query** Class (by measured protein stability index) for YSEYPECCVDVKPISQEKIEDERA [S21D]
**Result** middle group

**Query** Class (by measured protein stability index) for YSEYPECCVDAKPISQEKIESERA [V11A]
**Result** high group

**Query** Class (by measured protein stability index) for YSEYPECCVDVKPTSQEKIESERA [I14T]
**Result** middle group

**Query** Class (by measured protein stability index) for YSEYPECCVDVKPISAEKIESERA [Q16A]
**Result** middle group

**Query** Class (by measured protein stability index) for LSEYPECCVDVKPISQEKIESERA [Y1L]
**Result** high group

**Query** Class (by measured protein stability index) for YSEYPECCVDVKPISQEKIESERI [A24I]
**Result** high group

**Query** Class (by measured protein stability index) for YSEYPECCVDVKPICQEKIESERA [S15C]
**Result** high group

**Query** Class (by measured protein stability index) for YSEYPFCCVDVKPISQEKIESERA [E6F]
**Result** low group

**Query** Class (by measured protein stability index) for YSEYPECCVDVKMISQEKIESERA [P13M]
**Result** middle group

**Query** Class (by measured protein stability index) for YSEYPVCCVDVKPISQEKIESERA [E6V]
**Result** low group
